Here, each record is paired with measured ED50 data.
# System: Staphylococcus aureus Smith
# methodSummary: Efficacy in murine S. aureus septicemia
# Type: in vivo, ICR mice
# assayConditions: Staphylococcus aureus; intravenous administration; murine S. aureus Smith septicemia, dosed 1 hour after inoculation, mortality 7 days; read-out: ED50, IV

| molecule | targetOfAssay | ED50 |
| --- | --- | --- |
| CS[C@H]1O[C@H]([C@H](NC(=O)C2CC[C@H](CCCC#N)CCN2)[C@H](C)Cl)[C@H](O)[C@H](O)[C@H]1O (stereo in doubt) | Staphylococcus aureus Smith | 0.29 mg/kg |
| CS[C@H]1O[C@H]([C@H](NC(=O)C2CC[C@H](CCCCF)CCN2)[C@H](C)Cl)[C@H](O)[C@H](O)[C@H]1O (stereo in doubt) | Staphylococcus aureus Smith | 0.32 mg/kg |
| CS[C@H]1O[C@H]([C@H](NC(=O)C2CC[C@H](CCCCF)CCN2)C(C)C)[C@H](O)[C@H](O)[C@H]1O (stereo in doubt) | Staphylococcus aureus Smith | 0.28 mg/kg |
| CS[C@H]1O[C@H]([C@H](NC(=O)C2CC[C@H](CCCF)CCN2)C(C)C)[C@H](O)[C@H](O)[C@H]1O (stereo partly drawn) | Staphylococcus aureus Smith | 0.28 mg/kg |
| COCCC[C@@H]1CCN[C@H](C(=O)N[C@@H]([C@H]2O[C@H](SC)[C@H](O)[C@@H](O)[C@H]2O)[C@H](C)Cl)CC1 | Staphylococcus aureus Smith | 0.28 mg/kg |
| CS[C@H]1O[C@H]([C@H](NC(=O)C2CC[C@H](CCCF)CCN2)[C@H](C)Cl)[C@H](O)[C@H](O)[C@H]1O (stereo in doubt) | Staphylococcus aureus Smith | 0.18 mg/kg |

###

# Test system: Enterococcus faecalis
# methodSummary: Susceptibility testing, NCCLS microdilution MIC
# Type: cell-based
# assayConditions: Enterococcus faecalis, ATCC29212; E. faecalis ATCC 29212; Example A′; read-out: MIC E. faecalis
experimentalReadout: MIC

| molecule | targetOfAssay | recordedResult |
| --- | --- | --- |
| COCCC[C@@H]1CCN[C@H](C(=O)N[C@@H]([C@H]2O[C@H](SC)[C@H](O)[C@@H](O)[C@H]2O)[C@H](C)Cl)CC1 | Enterococcus faecalis | 0.5 µg/mL |
| CS[C@H]1O[C@H]([C@H](NC(=O)C2CC[C@H](CCCn3ccnn3)CCN2)[C@H](C)Cl)[C@H](O)[C@H](O)[C@H]1O (stereo in doubt) | Enterococcus faecalis | 4 µg/mL |
| CS[C@H]1O[C@H]([C@H](NC(=O)C2CC[C@H](CCCF)CCN2)C(C)C)[C@H](O)[C@H](O)[C@H]1O (stereo partly drawn) | Enterococcus faecalis | 0.25 µg/mL |

###

# Tested on: Staphylococcus aureus
# methodSummary: Susceptibility testing, NCCLS microdilution MIC
# Type: cell-based
# assayConditions: ATCC25923, S. aureus ATCC 25923, Example A′, read-out: MIC S. aureus
Here, each record is paired with measured MIC data.

| entrySmiles | targetOfAssay | MIC |
| --- | --- | --- |
| COCc1cn(CCC[C@@H]2CCN[C@H](C(=O)N[C@@H]([C@H]3O[C@H](SC)[C@H](O)[C@@H](O)[C@H]3O)[C@H](C)Cl)CC2)nn1 | Staphylococcus aureus | 2 µg/mL |
| CCOCCC[C@@H]1CCN[C@H](C(=O)N[C@@H]([C@H]2O[C@H](SC)[C@H](O)[C@@H](O)[C@H]2O)[C@H](C)Cl)CC1 | Staphylococcus aureus | 0.125 µg/mL |
| CS[C@H]1O[C@H]([C@H](NC(=O)[C@@H]2CC[C@H](CCCOCCF)CCN2)[C@H](C)Cl)[C@H](O)[C@H](O)[C@H]1O | Staphylococcus aureus | 0.125 µg/mL |
| CS[C@H]1O[C@H]([C@H](NC(=O)[C@@H]2CC[C@H](CCC(F)F)CCN2)[C@H](C)Cl)[C@H](O)[C@H](O)[C@H]1O | Staphylococcus aureus | 0.06 µg/mL |

###

Here, each record is paired with measured MIC data.
# Tested on: Enterococcus faecalis
# methodSummary: Susceptibility testing, NCCLS microdilution MIC
# Format: cell-based
# assayConditions: Enterococcus faecalis, ATCC29212; E. faecalis ATCC 29212; Example A′; read-out: MIC E. faecalis

| compound | unitsLabel | MIC |
| --- | --- | --- |
| CS[C@H]1O[C@H]([C@H](NC(=O)C2CC[C@H](CCCF)CCN2)[C@H](C)Cl)[C@H](O)[C@H](O)[C@H]1O (stereo in doubt) | µg/mL | 0.06 |
| CS[C@H]1O[C@H]([C@H](NC(=O)[C@@H]2CC[C@H](CCCn3cc(C(C)C)nn3)CCN2)[C@H](C)Cl)[C@H](O)[C@H](O)[C@H]1O | µg/mL | 4 |
| CS[C@H]1O[C@H]([C@H](NC(=O)C2CC[C@H](CCCCO)CCN2)[C@H](C)Cl)[C@H](O)[C@H](O)[C@H]1O (stereo in doubt) | µg/mL | 1 |
| CS[C@H]1O[C@H]([C@H](NC(=O)[C@@H]2CC[C@H](CCCOCCF)CCN2)[C@H](C)Cl)[C@H](O)[C@H](O)[C@H]1O | µg/mL | 2 |
| CS[C@H]1O[C@H]([C@H](NC(=O)C2CC[C@H](CCCCF)CCN2)[C@H](C)Cl)[C@H](O)[C@H](O)[C@H]1O (stereo in doubt) | µg/mL | 0.06 |
| COCCCC[C@@H]1CCN[C@H](C(=O)N[C@@H]([C@H]2O[C@H](SC)[C@H](O)[C@@H](O)[C@H]2O)[C@H](C)Cl)CC1 | µg/mL | 0.5 |

###

Here, each record is paired with measured IC50 data.
# System: E. coli transcription/translation (bacterial protein synthesis, E. coli S30 extract)
# methodSummary: In vitro inhibition of E. coli transcription and translation assay (TT), cell-free
# Assay type: biochemical
# assayConditions: cell-free E. coli S30 extract

| compound | targetOfAssay | IC50 / nM |
| --- | --- | --- |
| CS[C@H]1O[C@H]([C@H](NC(=O)C2CC[C@H](CCCCF)CCN2)C(C)C)[C@H](O)[C@H](O)[C@H]1O (stereo in doubt) | E. coli transcription/translation (bacterial protein synthesis, E. coli S30 extract) | 490 |
| CS[C@H]1O[C@H]([C@H](NC(=O)C2CC[C@H](CCCCC#N)CCN2)[C@H](C)Cl)[C@H](O)[C@H](O)[C@H]1O (stereo in doubt) | E. coli transcription/translation (bacterial protein synthesis, E. coli S30 extract) | 190 |
| COCCC[C@@H]1CCN[C@H](C(=O)N[C@@H]([C@H]2O[C@H](SC)[C@H](O)[C@@H](O)[C@H]2O)[C@H](C)Cl)CC1 | E. coli transcription/translation (bacterial protein synthesis, E. coli S30 extract) | 830 |
| CS[C@H]1O[C@H]([C@H](NC(=O)C2CC[C@H](CCCC#N)CCN2)[C@H](C)Cl)[C@H](O)[C@H](O)[C@H]1O (stereo in doubt) | E. coli transcription/translation (bacterial protein synthesis, E. coli S30 extract) | 320 |
| CS[C@H]1O[C@H]([C@H](NC(=O)C2CC[C@H](CCCn3ccnn3)CCN2)[C@H](C)Cl)[C@H](O)[C@H](O)[C@H]1O (stereo in doubt) | E. coli transcription/translation (bacterial protein synthesis, E. coli S30 extract) | 280 |
| COCc1cn(CCC[C@@H]2CCN[C@H](C(=O)N[C@@H]([C@H]3O[C@H](SC)[C@H](O)[C@@H](O)[C@H]3O)[C@H](C)Cl)CC2)nn1 | E. coli transcription/translation (bacterial protein synthesis, E. coli S30 extract) | 440 |
| CS[C@H]1O[C@H]([C@H](NC(=O)[C@@H]2CC[C@H](CCC(F)F)CCN2)[C@H](C)Cl)[C@H](O)[C@H](O)[C@H]1O | E. coli transcription/translation (bacterial protein synthesis, E. coli S30 extract) | 530 |

###

# Tested on: Bacteroides fragilis
# methodSummary: Susceptibility testing, NCCLS microdilution MIC (anaerobe)
# Type: cell-based
# assayConditions: Bacteroides fragilis, ATCC25285; B. fragilis ATCC 25285; NCCLS microdilution, anaerobe; read-out: MIC B. fragilis

| compound | MIC [µg/mL] |
| --- | --- |
| CS[C@H]1OC([C@H](NC(=O)[C@@H]2C[C@H](CC3CCC3)CCN2)[C@H](C)Cl)[C@H](O)[C@H](O)[C@H]1O (stereo in doubt) [Example 82] | 0.25 |
| CCCCCC1CCN[C@H](C(=O)N[C@@H]([C@H]2O[C@H](SC)[C@H](O)[C@@H](O)[C@H]2O)[C@H](C)Cl)CC1 (stereo partly drawn) [Example 145] | 0.5 |
| CCCC1CCN[C@H](C(=O)N[C@@H]([C@H]2O[C@H](SC)[C@H](O)[C@@H](O)[C@H]2O)[C@H](C)Cl)CC1 (stereo partly drawn) [Example 47] | 0.125 |
| CS[C@H]1OC([C@H](NC(=O)[C@@H]2C[C@H](CCC3CCC3)CCN2)[C@H](C)Cl)[C@H](O)[C@H](O)[C@H]1O (stereo in doubt) [Example 81] | 0.125 |
| CCCCC1CCN[C@H](C(=O)N[C@@H]([C@H]2O[C@H](SC)[C@H](O)[C@@H](O)[C@H]2O)[C@H](C)Cl)CC1 (stereo partly drawn) [Example 144] | 0.125 |
| CCC[C@@H]1C[C@@H](C(=O)N[C@@H]([C@H]2O[C@H](SC)[C@H](O)[C@@H](O)[C@H]2O)[C@H](C)Cl)N(C)C1 [clindamycin, reference compound] | 2 |
